Reference source: ChEMBL document CHEMBL4622874

# Test target: P-gp (ABCB1) (Homo sapiens)
# Sequence (P08183 whole entry): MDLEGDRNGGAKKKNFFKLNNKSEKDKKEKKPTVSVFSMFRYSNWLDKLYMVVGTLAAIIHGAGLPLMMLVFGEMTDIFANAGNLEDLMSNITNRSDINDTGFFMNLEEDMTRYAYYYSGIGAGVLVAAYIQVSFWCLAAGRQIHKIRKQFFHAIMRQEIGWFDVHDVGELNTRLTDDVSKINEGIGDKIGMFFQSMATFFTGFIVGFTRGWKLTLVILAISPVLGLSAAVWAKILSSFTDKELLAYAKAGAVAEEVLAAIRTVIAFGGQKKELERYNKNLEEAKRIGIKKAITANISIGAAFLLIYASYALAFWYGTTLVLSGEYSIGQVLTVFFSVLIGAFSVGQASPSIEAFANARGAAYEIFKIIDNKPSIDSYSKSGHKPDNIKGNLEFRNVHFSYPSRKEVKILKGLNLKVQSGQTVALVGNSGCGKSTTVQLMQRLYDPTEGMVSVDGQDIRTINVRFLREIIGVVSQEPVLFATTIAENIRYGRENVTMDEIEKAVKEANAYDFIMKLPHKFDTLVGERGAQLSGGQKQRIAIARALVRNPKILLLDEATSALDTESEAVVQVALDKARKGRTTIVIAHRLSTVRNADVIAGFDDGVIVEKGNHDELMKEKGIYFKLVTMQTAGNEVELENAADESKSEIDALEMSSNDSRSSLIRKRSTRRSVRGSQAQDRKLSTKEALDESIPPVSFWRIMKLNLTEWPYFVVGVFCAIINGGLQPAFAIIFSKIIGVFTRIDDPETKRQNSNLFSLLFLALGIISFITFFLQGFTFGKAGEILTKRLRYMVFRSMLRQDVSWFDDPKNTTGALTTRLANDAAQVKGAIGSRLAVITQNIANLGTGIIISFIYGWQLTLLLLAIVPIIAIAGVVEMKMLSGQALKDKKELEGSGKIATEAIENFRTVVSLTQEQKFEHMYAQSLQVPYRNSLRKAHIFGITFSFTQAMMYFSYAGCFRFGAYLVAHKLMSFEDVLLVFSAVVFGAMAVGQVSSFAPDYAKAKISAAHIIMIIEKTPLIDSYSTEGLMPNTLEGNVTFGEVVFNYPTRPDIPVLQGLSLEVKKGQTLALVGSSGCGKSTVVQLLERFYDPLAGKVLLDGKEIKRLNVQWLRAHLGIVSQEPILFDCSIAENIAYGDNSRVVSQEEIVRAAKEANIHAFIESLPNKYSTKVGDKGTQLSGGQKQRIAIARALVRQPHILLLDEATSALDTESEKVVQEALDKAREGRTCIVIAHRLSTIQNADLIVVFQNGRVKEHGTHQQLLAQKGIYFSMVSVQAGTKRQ
# Assay name: Substrate activity at P-gp (unknown origin) assessed as efflux ratio
# Format: ADME
# Condition parameters: not told
Provide the reported efflux ratio of each item.
Give bare numbers.

entry_smiles=Cc1ccc(-n2nccn2)c(C(=O)N2CCC[C@H]2Cn2ccc(-c3ccc(F)cn3)n2)c1 observed_measurement=1.96
entry_smiles=Cc1ccc(-n2nccn2)c(C(=O)N2CCCC[C@H]2Cn2ccc(-c3ccc(F)cn3)n2)c1 observed_measurement=1.63

For every record below, what is its efflux ratio?
1. Cc1ccc(-n2nccn2)c(C(=O)N2CCS[C@H]2Cn2ccc(-c3ccc(F)cn3)n2)c1
2. Cc1ccc(-n2nccn2)c(C(=O)N2CCCO[C@H]2Cn2cc(-c3ccc(F)cn3)nn2)c1
3. O=C(c1cc(F)ccc1-n1nccn1)N1CCCO[C@H]1Cn1ccc(-c2ccc(F)cn2)n1
4. Cc1ccc(-n2nccn2)c(C(=O)N2CCCO[C@H]2Cc2noc(-c3ccc(F)cn3)n2)c1
5. O=C(c1ccccc1-n1nccn1)N1CCCO[C@H]1Cn1ccc(-c2ccc(F)cn2)n1
6. Cc1ccc(-n2nccn2)c(C(=O)N2CCOC[C@H]2Cn2ccc(-c3ccc(F)cn3)n2)c1
7. Cc1ccc(-n2nccn2)c(C(=O)N2COCC[C@H]2Cn2ccc(-c3ccc(F)cn3)n2)c1
8. Cc1ccc(-n2nccn2)c(C(=O)N2CCCO[C@H]2Cn2ncn(-c3ccc(F)cn3)c2=O)c1

1.34
4.97
2.64
3.06
3.25
3.56
3.08
2.88

Name the recorded efflux ratio for "Cc1ccc(-n2nccn2)c(C(=O)N2COC[C@H]2Cn2ccc(-c3ccc(F)cn3)n2)c1" .
1.65
